Test system: SW48 cells
Experiment: Proliferation assay SW48 (CellTiterGlo, 96 hours)
Conditions: read-out: Proliferation Assay SW48 (GI50); SW48 cell line; geometric means of at least 2 determinations
QUANTITY NAME: GI50 (nM)
Report only the number, with the unit nM understood.

Worked cases, answers included:
- CCc1c(N2CCN(C(=O)c3nccc(Cl)c3O)CC2)c(=O)n2nc(C3=CC[C@H](OC)CC3)nc2n1CC(=O)Nc1ccc(C(F)(F)F)nc1Cl (single isomer, unassigned) [Example 24a]: 40
- CCc1c(N2CCN(C(=O)c3ncnc(C)c3O)[C@H](C)[C@@H]2C)c(=O)n2nc(C3=CCOCC3)nc2n1CC(=O)Nc1ccc(C(F)(F)F)cc1Cl (single isomer, unassigned): 100
- CCc1c(N2CCN(C(=O)c3nccc(Cl)c3O)CC2)c(=O)n2nc(C3=CC[C@H](OC)CC3)nc2n1CC(=O)Nc1ccc(C(F)(F)F)nc1Cl (single isomer, unassigned) [Example 24b]: 50
- CCc1c(N2CCN(C(=O)c3ncccc3O)CC2)c(=O)n2nc(C3=CC[C@H](OC)CC3)nc2n1CC(=O)Nc1ccc(C(F)(F)F)cc1 (single isomer, unassigned) [Example 81b]: 60

API: the following record is the query input.
Looking for the measured GI50 of CCc1c(N2CCN(C(=O)c3ncnc(C)c3O)[C@@H]3CC[C@@H]32)c(=O)n2nc(C3=CCOCC3)nc2n1CC(=O)Nc1ccc(C(F)(F)F)cc1Cl (single isomer, unassigned) [Example 131] , can you help?
30

###

Target: WRN helicase (Homo sapiens (Human), UniProt Q14191)
Sequence (Q14191 517-1238): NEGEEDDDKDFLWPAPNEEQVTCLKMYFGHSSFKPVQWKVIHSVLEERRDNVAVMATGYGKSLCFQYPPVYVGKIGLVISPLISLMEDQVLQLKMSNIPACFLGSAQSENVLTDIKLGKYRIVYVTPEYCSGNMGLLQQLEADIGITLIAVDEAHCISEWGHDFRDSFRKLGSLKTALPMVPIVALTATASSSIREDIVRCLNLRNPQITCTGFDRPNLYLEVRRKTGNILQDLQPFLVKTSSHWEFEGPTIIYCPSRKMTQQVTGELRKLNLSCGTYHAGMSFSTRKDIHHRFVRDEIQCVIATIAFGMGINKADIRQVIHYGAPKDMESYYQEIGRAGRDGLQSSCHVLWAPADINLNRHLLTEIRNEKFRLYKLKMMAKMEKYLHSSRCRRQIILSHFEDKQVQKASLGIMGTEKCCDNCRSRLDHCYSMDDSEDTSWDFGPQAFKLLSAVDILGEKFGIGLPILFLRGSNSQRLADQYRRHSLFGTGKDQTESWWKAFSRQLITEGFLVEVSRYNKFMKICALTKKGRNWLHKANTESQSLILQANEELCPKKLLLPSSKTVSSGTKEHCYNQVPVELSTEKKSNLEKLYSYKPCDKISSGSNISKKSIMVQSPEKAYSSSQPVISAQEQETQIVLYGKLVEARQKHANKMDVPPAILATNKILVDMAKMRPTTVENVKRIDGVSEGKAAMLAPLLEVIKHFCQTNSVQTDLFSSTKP
Assay: In vitro enzymatic activity assay on WRN helicase (DNA dependent ATPase assay, ADP-Glo)
Assay type: biochemical
Details: geometric means of at least 2 determinations; read-out: WRN ATPase Activity (IC50)
QUANTITY NAME: IC50 (nM)
The reply should contain only the number, in nM.

* CCc1c(N2CCN(C(=O)c3ncccc3O)CC2)c(=O)n2nc(N3CCC[C@H](F)C3)nc2n1CC(=O)Nc1ccc(C(F)(F)F)cc1C [Example 14b] | 90
* CCc1c(N2CCN(C(=O)c3ncccc3O)CC2)c(=O)n2nc(N3CCOCC3)nc2n1CC(=O)Nc1cc(C(F)(F)F)c(Cl)cc1C [Example 12] | 130
* CCc1c(N2CCN(C(=O)c3ncncc3O)CC2)c(=O)n2nc(C3=CCOCC3)nc2n1CC(=O)Nc1ccc(C(F)(F)F)cc1C [Example 64] | 90
* O=C(Cn1c(C2CC2)c(N2CCN(C(=O)c3ncccc3O)CC2)c(=O)n2nc(C3=CCOCC3)nc12)Nc1ccc(C(F)(F)F)cc1 [Example 134] | 60
* CCc1c(N2CCN(C(=O)c3nccc(F)c3O)CC2)c(=O)n2nc(C3=CCOCC3)nc2n1CC(=O)Nc1ccc(C(F)(F)F)cc1C [Example 63] | 110

We next turn to a different compound, shown below.
Which measured IC50 value corresponds to Cc1c(N2CCN(C(=O)c3ncccc3O)CC2)c(=O)n2nc(N3CC4CC(C3)O4)nc2n1CC(=O)Nc1ccc(C(F)(F)F)cc1F [Example 22] ?
600

###

Target: WRN helicase (Homo sapiens (Human), UniProt Q14191)
Assay: In vitro enzymatic activity assay on WRN helicase (DNA dependent ATPase assay, ADP-Glo)
Assay type: biochemical
Conditions: geometric means of at least 2 determinations; read-out: WRN ATPase Activity (IC50)
Known IC50 of a selection of molecules
Numbers only here, please. The scale is nM.

For orientation, consider the following solved cases.
• CCc1cc(C)c(NC(=O)Cn2c(CC)c(N3CCN(C(=O)c4ncccc4O)CC3)c(=O)n3nc(C4=CCOCC4)nc23)cc1Cl = 70
• CCc1c(N2CCN(C(=O)c3ncccc3O)CC2)c(=O)n2nc(C3=CCOCC3)nc2n1CC(=O)Nc1cc(F)c(C(F)(F)F)cc1Cl = 60
• CCc1c(N2CCN(C(=O)c3ncnc(C)c3O)[C@@H]3CC[C@@H]32)c(=O)n2nc(C3=CCOCC3)nc2n1CC(=O)Nc1ccc(C(F)(F)F)cc1Cl (single isomer, unassigned) [Example 132] = 890
• CCc1c(N2CCN(C(=O)c3ncnc(C)c3O)CC2)c(=O)n2nc(C3=CCOCC3)nc2n1CC(=O)Nc1ccc(C(F)(F)F)cc1C = 100
• CCc1c(N2CCN(C(=O)c3ncccc3O)CC2)c(=O)n2nc(C3=CCOCC3)nc2n1CC(=O)Nc1cc(F)c(C(F)(F)F)nc1C = 100

// switching to the query molecule
So what does the record say about IC50 for "CCc1c(N2CCN(C(=O)c3nccc(F)c3O)CC2)c(=O)n2nc(C3=CCOCC3)nc2n1CC(=O)Nc1ccc(C(F)(F)F)cc1Cl" ?
20
